Reference source for all entries: patent US20230250098A1

biological target: FLAG-mouse κOP (Mus musculus, UniProt P33534); construct: FLAG (N); expressed in transfected cells; host or cells: HEK cells, transient transfection together with pGloSensor22F; assay type: cell-based
Sequence (P33534 whole entry): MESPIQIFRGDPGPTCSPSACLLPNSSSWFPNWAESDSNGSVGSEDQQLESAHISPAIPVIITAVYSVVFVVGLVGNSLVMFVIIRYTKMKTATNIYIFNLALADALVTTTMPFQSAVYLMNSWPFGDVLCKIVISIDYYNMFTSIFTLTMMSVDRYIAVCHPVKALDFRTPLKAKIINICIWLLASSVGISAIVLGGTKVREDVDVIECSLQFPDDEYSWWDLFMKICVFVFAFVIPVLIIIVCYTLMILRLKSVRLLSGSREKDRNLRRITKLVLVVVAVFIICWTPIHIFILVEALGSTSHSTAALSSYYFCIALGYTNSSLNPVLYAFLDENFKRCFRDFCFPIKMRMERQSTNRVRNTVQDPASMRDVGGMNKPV
MEASURE_NAME: cAMP pIC50

{"COMPOUND": "CC[C@H]1CN2CC[C@@]3(O)C(=Nc4cccc(OC)c43)[C@@H]2C[C@@H]1/C(=C\\OC)C(=O)OC [7OH SPG, 7-hydroxyspeciogynine]", "cAMP pIC50": "5.1 ± 0.3 (3)"}

Kindly consider the entry below.
What does the record list as cAMP pIC50 for CC[C@H]1CN2CC[C@]3(Nc4cccc(OC)c4C3=O)[C@@H]2C[C@@H]1/C(=C\OC)C(=O)OC [SPG PI, Speciogynine Pseudoindoxyl] ?
4.7 ± 0.5 (4)

----------
biological target: HA-mouse μOP (Mus musculus, UniProt P42866); construct: HA (N); expressed in transfected cells; host or cells: HEK cells, transient transfection together with pGloSensor22F; assay: GloSensor cAMP inhibition assay in transfected HEK cells; assay type: cell-based; conditions: inhibition of forskolin-induced cAMP
Sequence (P42866 whole entry): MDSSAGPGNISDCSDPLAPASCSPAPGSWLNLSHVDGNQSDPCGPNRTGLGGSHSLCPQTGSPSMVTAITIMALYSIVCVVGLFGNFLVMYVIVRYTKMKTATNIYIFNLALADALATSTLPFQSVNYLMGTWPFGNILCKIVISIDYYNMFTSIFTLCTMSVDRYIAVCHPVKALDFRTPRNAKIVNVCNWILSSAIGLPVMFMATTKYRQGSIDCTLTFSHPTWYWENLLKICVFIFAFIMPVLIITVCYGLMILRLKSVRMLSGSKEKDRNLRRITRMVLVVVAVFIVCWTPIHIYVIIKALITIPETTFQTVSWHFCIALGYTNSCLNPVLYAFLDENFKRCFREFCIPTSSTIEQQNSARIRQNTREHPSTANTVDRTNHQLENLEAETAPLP
MEASURE_NAME: cAMP pIC50
One number for each entry.

{"MOLECULE": "CC[C@H]1CN2CC[C@@]3(O)C(=Nc4cccc(OC)c43)[C@@H]2C[C@@H]1/C(=C\\OC)C(=O)OC [7OH SPG, 7-hydroxyspeciogynine]", "STUDY_SYSTEM": "HA-mouse μOP (Mus musculus, UniProt P42866)", "cAMP pIC50": 6.2}

State the recorded cAMP pIC50 for every item in the following list.
1. C=C[C@H]1CN2CC[C@@]3(O)C(=Nc4cccc(OC)c43)[C@@H]2C[C@@H]1/C(=C\OC)C(=O)OC [70H PAYN, 7-Hydroxypaynantheine]
2. CC[C@@H]1CN2CC[C@@]3(O)C(=Nc4cccc(OC)c43)[C@@H]2C[C@@H]1/C(=C\OC)C(=O)OC [7-OH MITRA, 7-hydroxymitragynine, reference compound]

[4.7, 7.8]

----------
Would you mind telling me the reported cAMP α of each entry?
biological target: FLAG-mouse κOP (Mus musculus, UniProt P33534); construct: FLAG (N); expressed in transfected cells; host or cells: HEK cells, transient transfection together with pGloSensor22F; type: cell-based
Numbers only.

Answered cases to consult:
{"COMPOUND": "CC[C@@H]1CN2CC[C@@]3(O)C(=Nc4cccc(OC)c43)[C@@H]2C[C@@H]1/C(=C\\OC)C(=O)OC [7-OH MITRA, 7-hydroxymitragynine, reference compound]", "MEASURED_RESULT": 77}
{"COMPOUND": "CC[C@H]1CN2CC[C@]3(Nc4cccc(OC)c4C3=O)[C@@H]2C[C@@H]1/C(=C\\OC)C(=O)OC [SPG PI, Speciogynine Pseudoindoxyl]", "MEASURED_RESULT": 80}
{"COMPOUND": "C=C[C@H]1CN2CCc3c([nH]c4cccc(OC)c34)[C@@H]2C[C@@H]1/C(=C\\OC)C(=O)OC [PAYN, paynantheine, reference compound]", "MEASURED_RESULT": 95}

What does the record list as cAMP α for CC[C@H]1CN2CC[C@@]3(O)C(=Nc4cccc(OC)c43)[C@@H]2C[C@@H]1/C(=C\OC)C(=O)OC [7OH SPG, 7-hydroxyspeciogynine] ?
80

----------
biological target: μOP (Homo sapiens); format: binding; set-up: membranes isolated; conditions: [3H]DAMGO, CHO membranes
Sequence (P35372 whole entry): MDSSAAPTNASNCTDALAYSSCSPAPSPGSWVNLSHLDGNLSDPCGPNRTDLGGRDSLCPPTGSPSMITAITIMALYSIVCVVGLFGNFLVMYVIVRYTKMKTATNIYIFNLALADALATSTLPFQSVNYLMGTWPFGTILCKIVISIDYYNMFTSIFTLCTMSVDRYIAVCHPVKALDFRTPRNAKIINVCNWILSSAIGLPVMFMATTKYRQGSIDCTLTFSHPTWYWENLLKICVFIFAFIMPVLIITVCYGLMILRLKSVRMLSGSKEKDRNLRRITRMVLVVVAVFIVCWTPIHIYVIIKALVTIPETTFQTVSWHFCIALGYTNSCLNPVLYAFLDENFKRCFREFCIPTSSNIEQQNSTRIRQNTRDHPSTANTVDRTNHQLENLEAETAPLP
MEASURE_NAME: Binding pKi

Answered cases to consult:
{"COMPOUND": "C=C[C@H]1CN2CC[C@@]3(O)C(=Nc4cccc(OC)c43)[C@@H]2C[C@@H]1/C(=C\\OC)C(=O)OC [70H PAYN, 7-Hydroxypaynantheine]", "STUDY_SYSTEM": "μOP (Homo sapiens)", "Binding pKi": "5.2 ± 0.1 (3)"}
{"COMPOUND": "C=C[C@H]1CN2CCc3c([nH]c4cccc(OC)c34)[C@@H]2C[C@@H]1/C(=C\\OC)C(=O)OC [PAYN, paynantheine, reference compound]", "STUDY_SYSTEM": "μOP (Homo sapiens)", "Binding pKi": "6.3 ± 0.1 (4)"}
{"COMPOUND": "C=CC1CN2CCC3(Nc4cccc(OC)c4C3=O)C2CC1C(=COC)C(=O)OC (stereo not shown)", "STUDY_SYSTEM": "μOP (Homo sapiens)", "Binding pKi": "6.2 ± 0.1 (3)"}

Kindly consider the entry below.
What does the record list as Binding pKi for "CC[C@H]1CN2CC[C@]3(Nc4cccc(OC)c4C3=O)[C@@H]2C[C@@H]1/C(=C\OC)C(=O)OC" ?
7.1 ± 0.1 (3)

----------
biological target: HA-mouse μOP (Mus musculus, UniProt P42866); construct: HA (N); expressed in transfected cells; host or cells: HEK cells, transient transfection together with pGloSensor22F; assay: GloSensor cAMP inhibition assay in transfected HEK cells; assay type: cell-based; conditions: efficacy normalized to positive control DAMGO
MEASURE_NAME: cAMP α
One number for each entry.

Answered cases to consult:
{"COMPOUND": "CC[C@@H]1CN2CC[C@@]3(O)C(=Nc4cccc(OC)c43)[C@@H]2C[C@@H]1/C(=C\\OC)C(=O)OC [7-OH MITRA, 7-hydroxymitragynine, reference compound]", "MEASURE_NAME": "cAMP α", "MEASURED_RESULT": 84}
{"COMPOUND": "C[C@@H](NC(=O)[C@@H](N)Cc1ccc(O)cc1)C(=O)NCC(=O)N(C)[C@@H](Cc1ccccc1)C(=O)NCCO [DAMGO, reference compound]", "MEASURE_NAME": "cAMP α", "MEASURED_RESULT": 100}
{"COMPOUND": "C=C[C@H]1CN2CCc3c([nH]c4cccc(OC)c34)[C@@H]2C[C@@H]1/C(=C\\OC)C(=O)OC [PAYN, paynantheine, reference compound]", "MEASURE_NAME": "cAMP α", "MEASURED_RESULT": 100}
{"COMPOUND": "CC[C@H]1CN2CC[C@@]3(O)C(=Nc4cccc(OC)c43)[C@@H]2C[C@@H]1/C(=C\\OC)C(=O)OC [7OH SPG, 7-hydroxyspeciogynine]", "MEASURE_NAME": "cAMP α", "MEASURED_RESULT": 66}
{"COMPOUND": "C=C[C@H]1CN2CC[C@@]3(O)C(=Nc4cccc(OC)c43)[C@@H]2C[C@@H]1/C(=C\\OC)C(=O)OC [70H PAYN, 7-Hydroxypaynantheine]", "MEASURE_NAME": "cAMP α", "MEASURED_RESULT": 80}
{"COMPOUND": "CC[C@H]1CN2CC[C@]3(Nc4cccc(OC)c4C3=O)[C@@H]2C[C@@H]1/C(=C\\OC)C(=O)OC [SPG PI, Speciogynine Pseudoindoxyl]", "MEASURE_NAME": "cAMP α", "MEASURED_RESULT": 58}

Kindly consider the entry below.
What does the record list as cAMP α for C=CC1CN2CCC3(Nc4cccc(OC)c4C3=O)C2CC1C(=COC)C(=O)OC (stereo not shown) [PAYN PI, Paynantheine Pseudoindoxyl] ?
60

----------
Would you mind telling me the reported cAMP pIC50 of each entry?
target: HA-mouse μOP (Mus musculus, UniProt P42866); construct: HA (N); expressed in transfected cells; host or cells: HEK cells, transient transfection together with pGloSensor22F; test: GloSensor cAMP inhibition assay in transfected HEK cells; format: cell-based; conditions: inhibition of forskolin-induced cAMP

{"COMPOUND": "CC[C@H]1CN2CC[C@]3(Nc4cccc(OC)c4C3=O)[C@@H]2C[C@@H]1/C(=C\\OC)C(=O)OC", "STUDY_SYSTEM": "HA-mouse μOP (Mus musculus, UniProt P42866)", "cAMP pIC50": "6.6 ± 0.2 (5)"}

Provide the documented cAMP pIC50 with HA-mouse μOP (Mus musculus, UniProt P42866) as the system for C=CC1CN2CCC3(Nc4cccc(OC)c4C3=O)C2CC1C(=COC)C(=O)OC (stereo not drawn)
5.3 ± 0.2 (4)
